tested on: SK-MEL-5 melanoma; experiment: NCI-60 one-dose screen, 48 h (100 = growth as untreated, 0 = no growth, -100 = all killed); settings: 10 µM unless noted
Compounds without any hit were thinned out: in the full panel of roughly 83,000, 20% have a hit. The source made the active and inactive calls. The calls were made as follows: active = growth percent below 10; inactive = the rest.
Items are presented alongside their recorded growth.

Consider the following illustrative entries.
{"compound": "COc1ccc(N(Cc2cc(OC)c(OC)c(OC)c2)C2OC(=O)c3ccccc32)cc1 (stereo unspecified)", "assay-readout": "growth", "result": "18.2% (inactive)"}
{"compound": "CCc1ccc(C(c2ccc(CC)cc2)C(Cl)(Cl)CCl)cc1", "assay-readout": "growth", "result": "90% (inactive)"}
{"compound": "O=C(Nc1ccc(Oc2ccc(F)cc2)c(Cl)c1)c1cccnc1", "assay-readout": "growth", "result": "79.5% (inactive)"}
{"compound": "COc1ccc(-c2cc(NC(=O)Nc3ccc(O)cc3)no2)cc1", "assay-readout": "growth", "result": "82.3% (inactive)"}
{"compound": "Cn1c2c(Cl)c(Cl)ccc2c2ccn3c(=O)c4ccccc4nc3c21", "assay-readout": "growth", "result": "95.2% (inactive)"}

// next entry
Asked: Provide measured growth value, entry: O=C1Nc2ccc(Br)cc2C12CC(c1ccccc1)=NN2 (stereo unspecified)
Given back: 23.9% (inactive)

* * *

test system: DU-145 prostate; assay: NCI-60 one-dose screen, 48 h (100 = growth as untreated, 0 = no growth, -100 = all killed); conditions: 10 µM unless noted
The panel holds about 83,000 compounds, 20% with a hit somewhere; the sample as a whole holds those more often.
assay-readout: growth (%)
The response must be a number in % with no trailing unit.

{"molecule": "COc1cc2nc3cc([N+](=O)[O-])ccc3c(NCCCNCC(C)(C)O)c2cc1OC", "units-text": "%", "number": -34.3}
{"molecule": "CCCCCCCCCCCCCCCC[N+]1(CC)CCCC1", "units-text": "%", "number": -92.2}

Asked: Provide measured growth value, entry: "O=[N+]([O-])c1cccc(-c2nc3sccn3c2-c2ccnc(NCCNS(=O)(=O)c3ccc(C(F)(F)F)cc3)n2)c1"
Given back: 48.5

Asked: Provide measured growth value, entry: CS(=O)CCCCCN=C=S (stereo unspecified)
Given back: 9.76

Asked: Provide measured growth value, entry: COCCOC(=O)C1=C(C)NC(=S)NC1c1ccc2c(c1)OCO2 (stereo unspecified)
Given back: 108

Asked: Provide measured growth value, entry: CCN(CC)CC(C)Nc1ccc([N+](=O)[O-])c2sc3ccccc3c(=O)c12 (stereo unspecified)
Given back: 27.6

* * *

tested on: SNB-19 CNS; assay: NCI-60 one-dose screen, 48 h (100 = growth as untreated, 0 = no growth, -100 = all killed); details: 10 µM unless noted
The panel holds about 83,000 compounds, 20% with a hit somewhere; the sample as a whole holds those more often.
assay-readout: growth (%)
The response must be a number in % with no trailing unit.

Asked: Provide measured growth value, entry: "O=C1C(=O)N(CCCCn2cc(CO)nn2)c2ccccc21"
Given back: 99.5

Asked: Provide measured growth value, entry: "CCCNc1nc(SC)nc(-c2cccc(N)c2)c1C#N"
Given back: 91.6

Asked: Provide measured growth value, entry: COc1cc(C2CC(=O)Nc3c2cnn3Cc2ccco2)cc2c1OCCO2 (stereo not given)
Given back: 97.9

Asked: Provide measured growth value, entry: "COc1ccc(CN2C(=O)/C(=C\c3cc(OC)c(OC)c(OC)c3)c3cc(OC)ccc32)cc1"
Given back: 59.8

Asked: Provide measured growth value, entry: "CC(C)(C)c1nn(-c2ccccc2)c2c1CC1(CN2Cc2ccc3c(c2)OCO3)C(=O)c2ccccc2C1=O"
Given back: 111

* * *

tested on: DU-145 prostate; experiment: NCI-60 one-dose screen, 48 h; conditions: 10 µM unless noted
The panel holds about 83,000 compounds, 20% with a hit somewhere; the sample as a whole holds those more often. Activity calls are given as the source filed them. How the source made its calls: active means growth percent below 10; inactive means the rest.
Lab note: assign the record to one of active, inactive

{"molecule-smiles": "CCN(CC)CCC(=O)Nc1ccc(Cn2nnc3c2C(=O)c2nnn(Cc4ccc(NC(=O)CCN(CC)CC)cc4)c2C3=O)cc1", "label-class": "active"}
{"molecule-smiles": "CN(C)C(=O)c1cc2cnc(Nc3ccc(-c4csc5c(=O)cc(N6CCNCC6)oc45)cc3)nc2n1C1CCCC1", "label-class": "inactive"}
{"molecule-smiles": "CNC(=O)c1cc(Oc2ccc3nc(NC(=O)Nc4ccc(CN5CCOCC5)c(C(F)(F)F)c4)sc3c2)ccn1", "label-class": "inactive"}

Let us examine a further case.
Asked: Per the assay record, what outcome was assigned to "CN(C)c1ccc(/C=C\C2=[N+](C)c3ccccc3C2(C)C)cc1" ?
Given back: inactive

* * *

tested on: UACC-257 melanoma; assay: NCI-60 one-dose screen, 48 h (100 = growth as untreated, 0 = no growth, -100 = all killed); details: 10 µM unless noted
This is part of a sample that, as a whole, favours compounds with a hit. Of some 83,000 tested, about 20% had one in any assay.
Rule: growth of 80% or more gives 1; anything lower gives 0.

{"compound": "CCOC(=O)N1CCN(c2nc(Nc3cc(C)[nH]n3)c3ccccc3n2)CC1", "label-class": 0}

Asked: Hi team, for C=C1CCC2C3(C)COC(C)(C)OC3CCC2(C)C1C/C=C1/C(=O)OCC1OC(C)=O (stereo not given) , is the recorded growth at or above 80%?
Given back: 0

Asked: Hi team, for "CCN(C(=O)CN1CCN(c2cc3c(cc2F)c(=O)c(C(=O)O)cn3CC)CC1)c1nc(-c2ccccc2)cs1" , is the recorded growth at or above 80%?
Given back: 0

Asked: Hi team, for "CC/C=C\C[C@H](O)C/C=C1/C(=O)C=C[C@@H]1C/C=C\CCCC(N)=O" , is the recorded growth at or above 80%?
Given back: 0

Asked: Hi team, for "O=C1C[C@H](N2C(=O)c3ccccc3S2(=O)=O)C2CO[C@@H]1O2" , is the recorded growth at or above 80%?
Given back: 1

Asked: Hi team, for "C[C@]12C[C@@H](c3ccoc3)OC(=O)[C@@H]1CC[C@]1(C)[C@@H]2CC[C@@H](O)[C@]1(C)O" , is the recorded growth at or above 80%?
Given back: 1

Asked: Hi team, for "COc1cc(/C=N/N(C)C)ccc1O" , is the recorded growth at or above 80%?
Given back: 1

Asked: Hi team, for "COc1cccc(-c2nc3sccn3c2-c2ccnc(NCCCNS(=O)(=O)c3ccc(Cl)cc3)c2)c1" , is the recorded growth at or above 80%?
Given back: 0

Asked: Hi team, for Nc1nc2c(c3ncccc13)C(c1cccc(Br)c1)Cc1ncccc1-2 (stereo not given) , is the recorded growth at or above 80%?
Given back: 0

Asked: Hi team, for "CN1CCN(Cc2ccc(NC(=O)c3[nH]ncc3Nc3ncnc4sccc34)cc2)CC1" , is the recorded growth at or above 80%?
Given back: 0

Asked: Hi team, for "COc1ccc2nc3cc(Cl)ccc3c(N3CCN(c4ccnc(N5CCN(C)CC5)n4)CC3)c2c1" , is the recorded growth at or above 80%?
Given back: 1

Asked: Hi team, for O=C1CC(c2nc3ccccc3s2)CN1C1CCCCC1 (stereo not given) , is the recorded growth at or above 80%?
Given back: 1

Asked: Hi team, for "COc1cnc2c(c1)C(=O)c1c-2n(CCCN2CCN(C)CC2)c(=O)c2cc([N+](=O)[O-])ccc12" , is the recorded growth at or above 80%?
Given back: 0

Asked: Hi team, for "CC(C)c1c(C(=O)Nc2ccccc2)c(-c2ccccc2)c(-c2ccc(F)cc2)n1CC[C@@H]1CC=CC(=O)O1" , is the recorded growth at or above 80%?
Given back: 0

* * *

Items are presented alongside their recorded growth.
system: NCI-H226 lung; experiment: NCI-60 one-dose screen, 48 h (100 = growth as untreated, 0 = no growth, -100 = all killed); conditions: 10 µM unless noted
This is part of a sample that, as a whole, favours compounds with a hit. Of some 83,000 tested, about 20% had one in any assay.
The response must be a number in % with no trailing unit.

Consider the following illustrative entries.
{"compound": "COc1ccc(N(Cc2cc(OC)c(OC)c(OC)c2)C2OC(=O)c3ccccc32)cc1 (stereo not drawn)", "target-under-test": "NCI-H226 lung", "units-text": "%", "growth": 67.2}
{"compound": "COC(=O)C12C3C(=O)N(c4ccc(OC)cc4)C(=O)C3C(c3cn(-c4ccccc4)nc3C)N1[C@H](c1cn(-c3ccccc3)nc1C)[C@@H]1C(=O)N(c3ccc(OC)cc3)C(=O)[C@@H]12 (stereo partly drawn)", "target-under-test": "NCI-H226 lung", "units-text": "%", "growth": 99.7}
{"compound": "CC(=O)O[C@H]1CC[C@]2(C)[C@H]3CC[C@@H]4[C@H]5[C@H](C(C)C)CC[C@]5(C(=O)OCC(CO)(CO)N=C(N)N)CC[C@@]4(C)[C@]3(C)CC[C@H]2C1(C)C", "target-under-test": "NCI-H226 lung", "units-text": "%", "growth": 91.4}
{"compound": "CC(C)Oc1nc2c(c(=O)n(C)c(=O)n2C)n1C", "target-under-test": "NCI-H226 lung", "units-text": "%", "growth": 97.1}

Asked: Provide measured growth value, entry: "Cc1cc(Cl)ccc1Nc1nc(C(F)(F)F)ccc1C(=O)N/N=C/c1ccc(F)cc1"
Given back: 22.9

Asked: Provide measured growth value, entry: "COc1cc(C#N)cc(OC)c1OCCN(CCOc1c(OC)cc(C#N)cc1OC)S(=O)(=O)c1ccc(C)cc1"
Given back: 104

Asked: Provide measured growth value, entry: COc1cc(C2CC(=O)Nc3c2c(C)nn3-c2nc3ccccc3[nH]2)cc(OC)c1OC (stereo not drawn)
Given back: 99.1

Asked: Provide measured growth value, entry: "CNC(=S)N/N=C/CSC/C=N/NC(=S)NC"
Given back: 104
